# MEASUREMENT TARGET: Sphingosine kinase 2 (Homo sapiens)
# RUN PARAMETERS: at 1 µM
# Description: GSK_PKIS: SPHK2 mean inhibition at 1 uM [Nanosyn]
PROPERTY LABEL: inhibition (%)
The answer is to be given in %; state only the numeric part.

Recorded inhibition, per entry:
CCn1c(-c2nonc2N)nc2cnc(Oc3cccc(NC(=O)c4ccc(OCCN5CCOCC5)cc4)c3)cc21: -0.35
CC1=C(C(=O)Nc2ccc3[nH]ncc3c2)C(c2ccc3ccccc3c2)CC(=O)N1 (stereo not drawn): 0.65
NC(=O)c1ccc(-c2nc(-c3ccccn3)c(-c3ccc4c(c3)OCO4)[nH]2)cc1: -0.84
CN(C)c1cc2c(Nc3ccc4nc(Cc5ccccc5)[nH]c4c3)ncnc2cn1: -0.82
Cc1ccc(C(=O)NC2CCCCC2)cc1-c1ccc(C(=O)NCC2CC2)cc1: -1.61
COc1ccc(COc2ccc(Cc3cnc(N)nc3N)cc2OC)cc1: -0.88

Query block: Recall the reported inhibition of CS(=O)(=O)Nc1ccc(N/C=C2\C(=O)Nc3ccccc32)cc1 when tested on Sphingosine kinase 2 (Homo sapiens).
Result block: 0.65

Query block: Recall the reported inhibition of COc1cccc(-n2ncc3c(N/N=C/c4cccc(F)c4)ncnc32)c1 when tested on Sphingosine kinase 2 (Homo sapiens).
Result block: -0.22

Query block: Recall the reported inhibition of CCN1CCC(CC(=O)Nc2n[nH]c3nc(-c4cccs4)c(Br)cc23)CC1 when tested on Sphingosine kinase 2 (Homo sapiens).
Result block: -0.11

Query block: Recall the reported inhibition of Cc1nn(C)c2cc(N(C)c3ccnc(Nc4cccc(S(N)(=O)=O)c4)n3)ccc12 when tested on Sphingosine kinase 2 (Homo sapiens).
Result block: 0.14

Query block: Recall the reported inhibition of CNC(=O)c1cncc(/C=C/c2c(Cl)cccc2Cl)c1 when tested on Sphingosine kinase 2 (Homo sapiens).
Result block: -2.09

Query block: Recall the reported inhibition of CS(=O)(=O)CCNCc1ccc(-c2ccc3ncnc(Nc4ccc(OCc5cccc(F)c5)c(C(F)(F)F)c4)c3c2)o1 when tested on Sphingosine kinase 2 (Homo sapiens).
Result block: 0.79

Query block: Recall the reported inhibition of c1cnn2ncc(-c3ccnc(Nc4ccc5c(c4)OCCO5)n3)c2c1 when tested on Sphingosine kinase 2 (Homo sapiens).
Result block: 0.2

Query block: Recall the reported inhibition of Cc1nnc(-c2ccc(C)c(-c3ccc(C(=O)Nc4cccc(C#N)c4)cc3)c2)o1 when tested on Sphingosine kinase 2 (Homo sapiens).
Result block: 1.55

Query block: Recall the reported inhibition of COc1ccc(-c2ccncc2)cc1C(N)=O when tested on Sphingosine kinase 2 (Homo sapiens).
Result block: -0.67

====

Listing of entries alongside the reported inhibition.
# MEASUREMENT TARGET: Macrophage colony-stimulating factor 1 receptor (Homo sapiens) (UniProt P07333)
# Sequence (P07333 whole entry): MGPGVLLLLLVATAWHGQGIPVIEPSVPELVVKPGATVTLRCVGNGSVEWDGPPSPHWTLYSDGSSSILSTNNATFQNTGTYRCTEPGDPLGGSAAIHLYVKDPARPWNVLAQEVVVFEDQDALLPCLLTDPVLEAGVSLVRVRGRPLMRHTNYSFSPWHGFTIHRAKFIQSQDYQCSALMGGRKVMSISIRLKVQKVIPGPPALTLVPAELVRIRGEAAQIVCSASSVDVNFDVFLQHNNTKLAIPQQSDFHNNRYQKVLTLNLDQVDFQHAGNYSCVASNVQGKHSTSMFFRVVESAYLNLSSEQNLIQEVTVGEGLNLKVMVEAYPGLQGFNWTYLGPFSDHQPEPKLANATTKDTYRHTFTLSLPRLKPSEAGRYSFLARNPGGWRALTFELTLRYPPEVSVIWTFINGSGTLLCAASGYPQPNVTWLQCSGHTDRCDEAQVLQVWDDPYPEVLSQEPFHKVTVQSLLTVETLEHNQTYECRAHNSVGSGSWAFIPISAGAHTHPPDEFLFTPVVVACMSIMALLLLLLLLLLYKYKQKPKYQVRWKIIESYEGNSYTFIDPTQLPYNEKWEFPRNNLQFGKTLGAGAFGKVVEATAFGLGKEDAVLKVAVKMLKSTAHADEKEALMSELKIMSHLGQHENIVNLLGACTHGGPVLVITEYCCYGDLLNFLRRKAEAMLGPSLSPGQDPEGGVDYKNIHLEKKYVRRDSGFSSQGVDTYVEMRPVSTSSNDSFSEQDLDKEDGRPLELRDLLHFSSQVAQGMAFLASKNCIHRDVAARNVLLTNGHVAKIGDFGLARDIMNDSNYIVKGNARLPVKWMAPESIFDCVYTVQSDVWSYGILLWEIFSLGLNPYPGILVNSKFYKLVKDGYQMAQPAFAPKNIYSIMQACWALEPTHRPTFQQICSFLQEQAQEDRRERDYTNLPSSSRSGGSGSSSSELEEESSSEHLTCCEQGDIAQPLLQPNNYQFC
# RUN PARAMETERS: at 1 µM
The answer is to be given in %; state only the numeric part.

Recorded inhibition, per entry:
COC(=O)Nc1nc2cc(Oc3cccc(NC(=O)Nc4cc(C(F)(F)F)ccc4F)c3)ccc2[nH]1: 27.8
CS(=O)(=O)CCNCc1ccc(-c2ccc3ncnc(Nc4ccc(OCc5cccc(F)c5)c(C(F)(F)F)c4)c3c2)o1: -0.75
COc1cc2ncn(-c3cc(O[C@@H](C)c4ccccc4Cl)c(C(N)=O)s3)c2cc1OC: 9.87

Query block: Recall the reported inhibition of COc1cc2ncn(-c3cc(OCc4ccccc4Cl)c(C(N)=O)s3)c2cc1OC when tested on Macrophage colony-stimulating factor 1 receptor (Homo sapiens) (UniProt P07333).
Result block: 23.7

Query block: Recall the reported inhibition of Cc1nnc(-c2ccc(C)c(-c3ccc(C(=O)Nc4cccc(C#N)c4)cc3)c2)o1 when tested on Macrophage colony-stimulating factor 1 receptor (Homo sapiens) (UniProt P07333).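 Note: mean inhibition of FMS, from the GSK PKIS screening set.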
Result block: 0.77

====

# System: Tyrosine-protein kinase ABL1 (Homo sapiens), P00519 [T315I]
# RUN PARAMETERS: at 1 µM
Listing of entries alongside the reported inhibition.
The answer is to be given in %; state only the numeric part.

Recorded inhibition, per entry:
NS(=O)(=O)c1ccc(N/N=C2\C(=O)Nc3ccc(C(=O)NCCc4c[nH]cn4)cc32)cc1: 11.6
CC1=C(C(=O)Nc2ccc3[nH]ncc3c2)C(c2ccc(Cl)c(Cl)c2)CC(=O)N1 (stereo not given): 2.96
COc1ccc2cc(-c3c(-c4ccncc4)nc(-c4ccc([S+](C)[O-])cc4)n3C)ccc2c1 (stereo not given): 12.1
COc1cc2ncn(-c3cc(O[C@@H](C)c4ccccc4Cl)c(C(N)=O)s3)c2cc1OC: 13.5
CCn1c(-c2nonc2N)nc2ccncc21: -0.3
O=C1NC(=O)C(c2ccc(Cl)cc2)=C1Nc1ccc(Cl)c(C(=O)O)c1: 3

Query block: Report inhibition, nothing else, for this compound: CCn1c(-c2nonc2N)nc2c(N3CCCC3)nccc21
Result block: 0.72

Query block: Report inhibition, nothing else, for this compound: Nc1nc(-c2ccc3c(c2)C(=Cc2cc(Br)c(O)c(Br)c2)C(=O)N3)cs1
Result block: 1.95

Query block: Report inhibition, nothing else, for this compound: O=C1NC(=O)C(c2cccc(Cl)c2)=C1Nc1ccc(O)c(Cl)c1
Result block: -0.11

Query block: Report inhibition, nothing else, for this compound: CNC(=O)c1cncc(/C=C/c2c(Cl)cccc2Cl)c1
Result block: 4.22

====

# MEASUREMENT TARGET: Ribosomal protein S6 kinase beta-1 (Homo sapiens) (UniProt P23443);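 note: reported value is the mean inhibition of p70S6K1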
# Sequence (P23443 whole entry, looked up): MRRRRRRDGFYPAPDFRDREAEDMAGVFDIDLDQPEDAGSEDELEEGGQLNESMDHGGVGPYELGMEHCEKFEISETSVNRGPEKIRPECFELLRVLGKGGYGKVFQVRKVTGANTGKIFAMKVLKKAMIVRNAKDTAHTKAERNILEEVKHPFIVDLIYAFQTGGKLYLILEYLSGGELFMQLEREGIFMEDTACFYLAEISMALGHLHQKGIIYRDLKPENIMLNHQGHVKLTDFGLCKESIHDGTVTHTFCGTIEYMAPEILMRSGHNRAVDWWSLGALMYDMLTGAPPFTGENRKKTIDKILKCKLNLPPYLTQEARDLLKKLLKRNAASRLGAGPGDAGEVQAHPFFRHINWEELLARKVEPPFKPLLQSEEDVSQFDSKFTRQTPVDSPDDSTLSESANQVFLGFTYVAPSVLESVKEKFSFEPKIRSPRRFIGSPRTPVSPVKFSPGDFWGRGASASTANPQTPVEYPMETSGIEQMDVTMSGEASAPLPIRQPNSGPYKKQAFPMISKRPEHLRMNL
# RUN PARAMETERS: at 0.1 µM
Listing of entries alongside the reported inhibition.
The answer is to be given in %; state only the numeric part.

Query block: Report inhibition, nothing else, for this molecule: NCc1ccc(-c2nc(-c3ccc(Cl)c(O)c3)c(-c3ccncc3)[nH]2)cc1
Result block: 0.03

Query block: Report inhibition, nothing else, for this molecule: CCn1c(-c2nonc2N)nc2cncc(C(=O)N3CCNCC3)c21
Result block: 2.87

Query block: Report inhibition, nothing else, for this molecule: O=C1NC(=O)C(c2ccccc2Cl)=C1Nc1cccc(O)c1
Result block: 1.47

Query block: Report inhibition, nothing else, for this molecule: Fc1cccc(COc2ccc(Nc3ncnc4cc(-c5ccc[nH]5)sc34)cc2Cl)c1
Result block: 0.99

Query block: Report inhibition, nothing else, for this molecule: CN(C)c1cc2c(Nc3ccc4nc(Cc5ccccc5)[nH]c4c3)ncnc2cn1
Result block: 2.15

Query block: Report inhibition, nothing else, for this molecule: CS(=O)(=O)Nc1ccc(N/C=C2\C(=O)Nc3ccccc32)cc1
Result block: -0.58

Query block: Report inhibition, nothing else, for this molecule: Nc1ncnc2occ(-c3ccc(NC(=O)Nc4cc(C(F)(F)F)cc(C(F)(F)F)c4)cc3)c12
Result block: 17

Query block: Report inhibition, nothing else, for this molecule: CCc1cccc(NC(=O)Nc2ccc(Oc3ccc4nc(NC(=O)OC)[nH]c4c3)cc2)c1
Result block: 4.31

Query block: Report inhibition, nothing else, for this molecule: N#Cc1c(NC(=O)c2cccc3ccccc23)sc2c1CCCC2
Result block: 1.14

Query block: Report inhibition, nothing else, for this molecule: COc1cc(C)c(NC(=O)CN(C)C)cc1Nc1nc(Nc2cccc(F)c2C(N)=O)c2cc[nH]c2n1
Result block: 2.03

Query block: Report inhibition, nothing else, for this molecule: Nc1ncnc2occ(-c3ccc(NC(=O)Nc4cccc(C(F)(F)F)c4)cc3)c12
Result block: 21

Query block: Report inhibition, nothing else, for this molecule: NS(=O)(=O)c1ccc(N/N=C2\C(=O)Nc3ccc(C(=O)NCCc4c[nH]cn4)cc32)cc1
Result block: 2.49

====

# MEASUREMENT TARGET: Serine/threonine-protein kinase 3 (Homo sapiens) (UniProt Q13188)
# Sequence (Q13188 whole entry): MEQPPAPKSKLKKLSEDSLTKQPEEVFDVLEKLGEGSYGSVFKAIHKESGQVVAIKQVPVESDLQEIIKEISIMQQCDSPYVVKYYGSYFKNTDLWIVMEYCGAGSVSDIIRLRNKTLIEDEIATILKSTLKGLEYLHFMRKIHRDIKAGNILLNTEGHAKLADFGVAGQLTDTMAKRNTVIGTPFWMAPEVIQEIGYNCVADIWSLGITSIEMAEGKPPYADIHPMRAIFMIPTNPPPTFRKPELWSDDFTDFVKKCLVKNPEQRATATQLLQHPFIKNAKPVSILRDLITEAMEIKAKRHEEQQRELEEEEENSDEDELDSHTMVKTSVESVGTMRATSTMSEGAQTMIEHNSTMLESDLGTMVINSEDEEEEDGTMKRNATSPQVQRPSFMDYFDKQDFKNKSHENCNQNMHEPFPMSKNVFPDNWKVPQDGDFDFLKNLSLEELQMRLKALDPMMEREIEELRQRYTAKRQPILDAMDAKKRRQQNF
# RUN PARAMETERS: at 0.1 µM
PROPERTY LABEL: inhibition (%)
The answer is to be given in %; state only the numeric part.

Recorded inhibition, per entry:
COc1cc2ncn(-c3cc(OCc4ccccc4C(F)(F)F)c(C(N)=O)s3)c2cc1OC: 15.2
CCCN1CCC=C(c2ccc(Nc3nc(Nc4ccccc4C(N)=O)c4cc[nH]c4n3)c(C)c2)C1: 5.37
NS(=O)(=O)c1cccc(-c2ccc3c(NC(=O)C4CC4)n[nH]c3c2)c1: -3.79
COc1cc2ncn(-c3cc(O[C@H](C)c4ccccc4Cl)c(C(N)=O)s3)c2cc1OC: 34.7
CC1=C(C(=O)Nc2ccc3[nH]ncc3c2)C(c2ccc3ccccc3c2)CC(=O)N1 (centres undefined): 3.29
O=C1Nc2ccc(C(=O)c3ccco3)cc2C1=Cc1cc(Cl)c(O)c(Cl)c1: 20.4
NC(=O)c1cccc(Nc2nccc(Nc3cccc4[nH]ncc34)n2)c1: -4.57
CN1CCC(C(=O)Nc2n[nH]c3nnc(-c4ccccc4)cc23)CC1: 5.88
N#Cc1c(NC(=O)c2cccc3ccccc23)sc2c1CCCC2: 2.39
COc1ccc(COc2ccc(Cc3cnc(N)nc3N)cc2OC)cc1: 3.88

Query block: Recall the reported inhibition of O=C(Nc1n[nH]c2nc(-c3ccco3)c(Br)cc12)C1CC1 when tested on Serine/threonine-protein kinase 3 (Homo sapiens) (UniProt Q13188).
Result block: 6.08

Query block: Recall the reported inhibition of COc1cc(C=NNc2ncnc3c2cnn3-c2ccccc2)ccc1O when tested on Serine/threonine-protein kinase 3 (Homo sapiens) (UniProt Q13188).
Result block: 3.41

Query block: Recall the reported inhibition of Cc1nnc(-c2ccc(C)c(-c3ccc(C(=O)Nc4cccc(C#N)c4)cc3)c2)o1 when tested on Serine/threonine-protein kinase 3 (Homo sapiens) (UniProt Q13188).
Result block: 2.65

Query block: Recall the reported inhibition of COc1ccc2cc(-c3c(-c4ccncc4)nc(-c4ccc([S+](C)[O-])cc4)n3C)ccc2c1 (centres undefined) when tested on Serine/threonine-protein kinase 3 (Homo sapiens) (UniProt Q13188).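 Note: reported value is the mean percent inhibition of MST2.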
Result block: 6.01
